Reference source: ChEMBL document CHEMBL1157650

System: Ileum
Assay name: Inhibition of bradykinin-induced Hartley guinea pig ileum contraction at 1 uM relative to control
Type: functional
Condition context: Cavia porcellus
I'd be grateful if you could share measured inhibition at 1 µM for these entries.
Unit % implied. Number only.

The compound listed as Cc1ccc(CNC(=O)/C=C\C(=O)N2CCCN(C(c3ccccc3)c3ccc(Cl)cc3)CC2)cc1 (stereo not given) shows inhibition at 1 µM equal to 79.4

The compound listed as CC(CCc1ccccc1)NC(=O)/C=C\C(=O)N1CCN(C(c2ccccc2)c2ccccc2)CC1 (stereo not given) shows inhibition at 1 µM equal to 77.5

The compound listed as O=C(CCC(=O)N1CCCN(C(c2ccccc2)c2ccc(Cl)cc2)CC1)NC1CCCCC1 (stereo not given) shows inhibition at 1 µM equal to 71.7

The compound listed as CC(CC(=O)N(C)C)CC(=O)N1CCN(C(c2ccccc2)c2ccc(Cl)cc2)CC1 (stereo not given) shows inhibition at 1 µM equal to 36

The compound listed as CC(C)(CC(=O)NC1CCCCC1)CC(=O)N1CCN(C(c2ccccc2)c2ccc(Cl)cc2)CC1 (stereo not given) shows inhibition at 1 µM equal to 28

* * *

I'd be grateful if you could share measured inhibition at 1 µM for these entries.
Tested on: Ileum
Assay name: Inhibition of bradykinin-induced Hartley guinea pig ileum contraction at 1 uM relative to control
Type: functional
Condition context: Cavia porcellus
Provide a numeric answer, followed by its unit.

The molecule listed as Cc1ccc(CNC(=O)CC(C)CC(=O)N2CCCN(C(c3ccccc3)c3ccc(Cl)cc3)CC2)cc1 (configuration not stated) shows inhibition at 1 µM equal to 81.3%

The molecule listed as COc1ccc(CNC(=O)CCC(=O)N2CCCN(C(c3ccccc3)c3ccc(Cl)cc3)CC2)cc1 (configuration not stated) shows inhibition at 1 µM equal to 80.9%

The molecule listed as N=C(N)NCCC[C@@H](N)C(=O)N[C@@H](CCCNC(=N)N)C(=O)N1CCC[C@H]1C(=O)N1C[C@H](O)C[C@H]1C(=O)NCC(=O)N[C@@H](Cc1cccs1)C(=O)N[C@@H](CO)C(=O)N1Cc2ccccc2C[C@@H]1C(=O)N1[C@H](C(=O)N[C@@H](CCCNC(=N)N)C(=O)O)C[C@@H]2CCCC[C@@H]21 shows inhibition at 1 µM equal to 100%

The molecule listed as Cc1ccc(CNC(=O)/C=C\C(=O)N2CCN(C(c3ccc(F)cc3)c3ccc(F)cc3)CC2)cc1 shows inhibition at 1 µM equal to 84.5%

The molecule listed as Cc1ccc(CNC(=O)/C=C\C(=O)N2CCN(C(c3ccccc3)c3ccc(Cl)cc3)CC2)cc1 (configuration not stated) shows inhibition at 1 µM equal to 78.5%

The molecule listed as Cc1ccc(CNC(=O)CC(C)CC(=O)N2CCN(C(c3ccccc3)c3ccc(Cl)cc3)CC2)cc1 (configuration not stated) shows inhibition at 1 µM equal to 64.8%

The molecule listed as Cc1ccc(CNC(=O)CCC(=O)N2CCN(C(c3ccccc3)c3ccc(Cl)cc3)CC2)cc1 (configuration not stated) shows inhibition at 1 µM equal to 67.9%

* * *

Tested on: Ileum
Assay name: Inhibition of bradykinin-induced Hartley guinea pig ileum contraction at 1 uM relative to control
Type: functional
Condition context: Cavia porcellus
Recorded metric: inhibition at 1 µM (%)
Unit % implied. Number only.

The compound listed as COc1ccc(CNC(=O)CC(C)CC(=O)N2CCCN(C(c3ccccc3)c3ccc(Cl)cc3)CC2)cc1 (centres undefined) shows inhibition at 1 µM equal to 78.3

The compound listed as CC(CCc1ccccc1)NC(=O)/C=C\C(=O)N1CCN(C(c2ccc(F)cc2)c2ccc(F)cc2)CC1 (centres undefined) shows inhibition at 1 µM equal to 86.6

The compound listed as COc1ccc(CNC(=O)/C=C\C(=O)N2CCCN(C(c3ccccc3)c3ccc(Cl)cc3)CC2)cc1 (centres undefined) shows inhibition at 1 µM equal to 75

The compound listed as COc1cc(CNC(=O)CC(C)CC(=O)N2CCCN(C(c3ccccc3)c3ccc(Cl)cc3)CC2)cc(OC)c1OC (centres undefined) shows inhibition at 1 µM equal to 69.7
